Hi there, I'd appreciate the recorded Kd for every entry that follows.
SUBJECT OF TEST: BV2373 (recombinant CoV S glycoprotein, Prototype) (SARS-CoV-2, UniProt P0DTC2 14-1273)
MEASUREMENT DESCRIPTION: BLI, antibody on anti-mouse Fc biosensor, rS analyte
Numeric only. Scale: pM

Problem: Request the reported Kd associated with 35.13 (antibody, V domains shown) VH: QVQLQQSGAELGKPGASVKLSCRASGYTFTRYYIYWVKQRPGQGLEWIGEINPSNGDTHFNEKFKTKATLTVDKSSSSAHIHLTSLTSEDSAVYYCSIHAYSFDFWGQGTTLTVSS VL: EIQMTQSPSSMSASLGDRITITCQATQDIVKNLNWYQQKPGKPPSFLIYHATELAKGVPSRFSGSGSGSDYSLTISNLESEDFADYYCLQFYDFPFTFGAGTKLELKR
Result: 5.29

Problem: Request the reported Kd associated with 239.12 (antibody, V domains shown) VH: EVKLEESGPVLVKPSQSLSLTCTVTGYSITSDYAWNWIRQFPGNKLEWMGYISNSAGTSYNPSLKSRISITRDTSKNQFFLQLNSVTTEDTATYYCASGGWSSYYAMDYWGQGTSVTVSS VL: DIQMTQSPASLSASVGETVTITCGASENIYGALNWYQRKQGKSPQLLIYGATNLADGMSSRFSGSGSGRQYSLKISSLHPDDVATYYCQNVLSTPYTFGGGTKLEIKR
Result: 3.81

Problem: Request the reported Kd associated with 322.3 (antibody, V domains shown) VH: RVQLQQSGPELVKPGASVTISCKASGYIFTSDYIHWVKQRPGQGPEWIGWIYPGNINTKYNEKFKGKATLTADKSSSTAYMQLSSLTSEDSAVYFCARDDGNLYYYAMDYWGQGTSVTVSS VL: NIVLTQSPASLAVSLGQRATISCRASESVDSYGSSFMHWYQQKPGQPPKLLIYLASNLESGVPARFSGSGSRTDFTLTIDPVEADDAATYYCQQNNEDPRTFGGGTKLEIK
Result: 57.1
